system: HCMV (strain AD169); assay: Inhibition of HCMV replication, plaque reduction assay (PRA, Hs-68 cells); format: cell-based, Human Cytomegalovirus (HCMV); settings: Human betaherpesvirus 5, AD169, Hs68, Group 1 Table 5 entries, read-out: PRA CMV EC50
Hi there, I'd appreciate the recorded pEC50 for every entry that follows.
Give bare numbers, as −log10 of the molar value.

As a guide, the following entries are already answered.
{"columns": ["Smiles text", "pEC50"],
 "data": [
  ["CC(C)(C)OC(=O)N[C@H](Cc1ccccc1)C(=O)Nc1ccc(-c2csc(N)n2)cc1", 4.66],
  ["CC(C)(C)OC(=O)N[C@@H](Cc1ccccc1)C(=O)Nc1ccc(-c2csc(N)n2)cc1", 4.62],
  ["CN(C(=O)OC(C)(C)C)[C@@H](Cc1ccccc1)C(=O)Nc1ccc(-c2csc(N)n2)cc1", 4.92],
  ["Nc1nc(-c2ccc(NC(=O)[C@@H](Cc3ccccc3)N(Cc3ccccc3)C(=O)C3CCCCC3)cc2)cs1", 5.06],
  ["CC(C)(C)CC(=O)N[C@@H](Cc1ccccc1)C(=O)Nc1ccc(-c2csc(N)n2)cc1", 4.68]
]}

I have 3 molecules here; please give me pEC50 for each one.
1. Nc1nc(-c2ccc(NC(=O)[C@H](Cc3ccccc3)NCc3ccccc3)cc2)cs1
2. Nc1nc(-c2ccc(NC(=O)[C@H](Cc3ccccc3)NS(=O)(=O)N3CCOCC3)cc2)cs1
3. Nc1nc(-c2ccc(NC(=O)[C@H](Cc3ccccc3)N(Cc3ccccc3)C(=O)C3CCCCC3)cc2)cs1

[5.15, 4.26, 5.10]
